# ASSAY TARGET: hPPARα (Homo sapiens)
# Sequence (Q07869 whole entry): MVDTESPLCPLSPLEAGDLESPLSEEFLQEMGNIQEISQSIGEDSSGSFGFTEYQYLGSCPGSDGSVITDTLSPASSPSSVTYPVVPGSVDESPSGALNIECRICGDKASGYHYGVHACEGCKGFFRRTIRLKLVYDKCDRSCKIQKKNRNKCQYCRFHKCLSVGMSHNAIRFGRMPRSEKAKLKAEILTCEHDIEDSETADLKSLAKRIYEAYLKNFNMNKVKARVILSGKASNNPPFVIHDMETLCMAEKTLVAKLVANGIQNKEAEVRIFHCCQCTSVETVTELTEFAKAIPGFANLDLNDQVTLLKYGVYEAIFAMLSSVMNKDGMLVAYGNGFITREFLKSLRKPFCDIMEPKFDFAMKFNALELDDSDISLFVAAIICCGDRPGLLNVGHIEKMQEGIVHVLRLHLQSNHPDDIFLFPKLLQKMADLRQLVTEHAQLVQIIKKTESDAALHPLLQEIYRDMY
# EXPERIMENT DESCRIPTION: PPARα luciferase cell reporter assay (Indigo Biosciences)
# Type: cell-based
# CONDITION CONTEXT: 5 μM; structure IIb compounds (Table 8)
Below, each entry is listed alongside its reported Fold (5 μM): fold increase in luciferase compared to DMSO negative control.

Would you please look over these solved cases?
MOLECULE: O=C(O)c1ccc(NCc2ccc(OCc3ccc(F)cc3)cc2)cc1 [Compound 183]
ASSAY TARGET: hPPARα (Homo sapiens)
ASSAY RESULT: 4 fold

MOLECULE: COc1ccc(COc2ccc(CNc3ccc(C(=O)O)cc3)cc2)cc1 [Compound 162]
ASSAY TARGET: hPPARα (Homo sapiens)
ASSAY RESULT: 4 fold

MOLECULE: O=C(O)c1ccc(NCc2ccc(OCc3ccc(C(F)(F)F)cc3)cc2)cc1 [Compound 155]
ASSAY TARGET: hPPARα (Homo sapiens)
ASSAY RESULT: 4 fold

We now examine a further molecule.
*Q* Please give the measured Fold (5 μM): fold increase in luciferase compared to DMSO negative control for this molecule: CC(C)(Oc1ccc(NCc2ccc(OCc3ccc(F)cc3)cc2)cc1)C(=O)O [Compound 182]
*A* 40 fold
